These entries and their values trace back to PubChem BioAssay (NCI).

Test system: TK-10 renal
PROTOCOL_SUMMARY: NCI tumour cell line growth inhibition, 48 h
PARAMETER: GI50

Exercise: Record request: GI50 value, item `CC(C)(C)c1cc(-c2nc3ccc(N4CCN(CCO)CC4)cc3[nH]2)cc(C(C)(C)C)c1O`
Solution: 4.69 µM

Exercise: Form field: reported GI50 of `CN(C)C=Nc1c(I)cc(I)c(CCC(=O)O)c1I`
Solution: > 100 µM

Exercise: Given `COc1cc(CCNC(=O)OC(C)(C)C)c2c(c1OC)SSSSS2` , state its recorded GI50.
Solution: 2.63 µM

Exercise: I'd like to know its GI50. The molecule in question is `Nc1ncn([C@H]2C[C@H](OP(=O)(O)OC[C@H]3O[C@@H](n4cnc5c(=O)[nH]c(N)nc54)C[C@@H]3O)[C@@H](CO)O2)c(=O)n1`
Solution: > 100 µM

Exercise: If you can, please state the reported GI50 value of `COc1ccc(-c2cn(-c3cc(OC)c(OC)c(OC)c3)c(=O)[nH]2)cc1OC` .
Solution: > 100 µM

Exercise: What does the data say about its GI50? Entry: `CCNCCNc1cc(-c2ccc(C(F)(F)F)cc2)c(C#N)c2nc3cc(Cl)c(Cl)cc3n12`
Solution: 2.38 µM

Exercise: Entry `O=C([CH-]C(=O)c1ccccc1)c1ccccc1.O=C([CH-]C(=O)c1ccccc1)c1ccccc1.O=C([CH-]C(=O)c1ccccc1)c1ccccc1.[Cl-].[Hf+4]` : reported GI50 = ?
Solution: 18.7 µM

Exercise: Which GI50 value belongs to `O=S(=O)(NCCCNc1cc(-c2cn(-c3ccccc3)nc2-c2cccc(O)c2)ccn1)c1ccc(Br)cc1` ?
Solution: 3.35 µM

Exercise: Quick one: GI50 of Cc1ccsc1-c1ccc2c(c1)COC2(CCCN(C)C)c1ccc(F)cc1 (centres undefined) ?
Solution: 3.04 µM
